Data provenance: patent US8138168B1

Listing of recorded IC50 by entry.
Molecular target: Recombinant human renin (Homo sapiens, UniProt P00797)
Construct: isolate the active form (residues 67-406); made in house; host or cells: FreeStyle 293-F cells (transient expression of pcDNA3.1(+)/hREN)
Sequence (P00797 67-406): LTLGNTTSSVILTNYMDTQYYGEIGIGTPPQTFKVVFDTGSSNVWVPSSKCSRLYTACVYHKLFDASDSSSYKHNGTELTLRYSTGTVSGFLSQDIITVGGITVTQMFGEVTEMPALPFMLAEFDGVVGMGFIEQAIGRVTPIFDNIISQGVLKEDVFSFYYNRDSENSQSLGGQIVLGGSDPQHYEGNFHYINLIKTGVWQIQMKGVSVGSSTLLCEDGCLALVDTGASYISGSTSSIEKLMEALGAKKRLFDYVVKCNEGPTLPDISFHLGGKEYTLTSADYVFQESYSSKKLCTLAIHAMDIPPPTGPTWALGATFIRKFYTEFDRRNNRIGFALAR
Assay: In vitro enzymatic activity assay of renin inhibitors (fluorogenic peptide substrate)
Assay type: biochemical
Settings: read-out: IC50 of Exemplified Compounds Against Renin
PARAMETER_MEASURED: IC50

INSERT INTO assay_data (compound, result_value) VALUES
  ('COCCCn1c([C@@H]2CCCN(C(=O)C[C@H](N)Cc3ccc(-c4ccccc4)cc3)C2)nc2ccccc21', '< 100 nM'),
  ('COCCCn1c([C@@H]2CCCN(C(=O)C[C@H](N)CNC(=O)c3ccc(Cl)cc3)C2)nc2ccccc21', '100 to 1000 nM'),
  ('O=C(NCc1ccco1)N1CCCC(c2nc3ccccc3[nH]2)C1 (centres unmarked)', '> 1000 nM'),
  ('COCCCn1c([C@@H]2CCCN(C(=O)C[C@H](N)Cc3ccc(-c4ccc(C(N)=O)cc4)cc3)C2)nc2ccccc21', '< 100 nM'),
  ('COCCCn1c([C@@H]2CCCN(C(=O)C[C@H](N)CNS(=O)(=O)c3ccc(Cl)c(Cl)c3)C2)nc2ccccc21', '100 to 1000 nM');
